The reported measurements were obtained from ChEMBL document CHEMBL4138275.

Tested on: HeLa
PROTOCOL_SUMMARY: Antiproliferative activity against human HeLa cells after 48 hrs by sulforhodamine B assay
Type: functional, cell-based
PARAMETER: IC50 (µM)
Numeric answer only, unit µM assumed.

CC(=O)O[C@H]1[C@H]2[C@H]([C@@H]3[C@@H](OC=O)[C@@H]4[C@H]([C@H](C)[C@H]5O[C@]56OC(=O)[C@@](C)(O)[C@]46C)[C@@]3(C)[C@H]1OC(C)=O)[C@@H](O)C(=O)[C@H]1C[C@@H]3O[C@@H]3[C@H](OC(C)=O)[C@]21C : 0.0084
CC(=O)O[C@H]1[C@H]2[C@H]([C@@H]3[C@@H](OC(=O)c4ccc5c(c4)C(=O)c4ccccc4C5=O)[C@@H]4[C@H]([C@H](C)C=C5OC(=O)[C@@](C)(O)[C@@]54C)[C@@]3(C)[C@H]1OC(C)=O)[C@@H](O)C(=O)[C@H]1C[C@@H]3O[C@@H]3[C@H](OC(C)=O)[C@]21C : 7.1
CC(=O)O[C@@H]1[C@H]2[C@H]3[C@H]([C@H](OC(C)=O)[C@H](OC(C)=O)[C@]2(C)[C@H]2[C@H](C)[C@H]4O[C@]45OC(=O)[C@@](C)(O)[C@]5(C)[C@H]12)[C@]1(C)[C@H](C[C@@H]2O[C@@H]2[C@@H]1OC(C)=O)C(=O)[C@@H]3O : 0.023
CC(=O)O[C@H]1[C@H]2[C@H]([C@@H]3[C@@H](OC(=O)CC(C)C)[C@@H]4[C@H]([C@H](C)C=C5OC(=O)[C@@](C)(O)[C@@]54C)[C@@]3(C)[C@H]1OC(C)=O)[C@@H](O)C(=O)[C@H]1C[C@@H]3O[C@@H]3[C@H](OC(C)=O)[C@]21C : 1.5

Per the record, CC(=O)O[C@@H]1[C@H]2[C@H]3[C@H]([C@H](OC(C)=O)[C@H](OC(C)=O)[C@]2(C)[C@@H]2[C@@H]1[C@]1(C)C(=C[C@H]2C)OC(=O)[C@@]1(C)O)[C@]1(C)[C@H](C[C@@H]2O[C@@H]2[C@@H]1OC(C)=O)C(=O)[C@@H]3O [TACCALONOLIDE A] has IC50 of 5.4
